Molecular target: Protein kinase C gamma type (Homo sapiens) (UniProt P05129);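 also: each value is an averaged percent inhibition of the enzyme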
Details: at 1 µM
readout: inhibition (%)

compound_smiles=CN1CCN(C(=O)c2ccc(NC(=O)Nc3ccc(N(C)c4ccnc(Nc5ccc(CS(C)(=O)=O)cc5)n4)cc3)cc2)CC1 readout=inhibition measurement=2.89
compound_smiles=O=C1Nc2ccc(-c3cccnc3)cc2C1=Cc1cc(Br)c(O)c(Br)c1 readout=inhibition measurement=6.29
compound_smiles=Cc1cc(O)cc(C)c1/C=C/c1cncc(C(=O)N(C)C)c1 readout=inhibition measurement=4.07
compound_smiles=Cc1ccc2c(-c3ccnc(Nc4cccc(C(F)(F)F)c4)n3)c(-c3ccccc3)nn2n1 readout=inhibition measurement=5.36
compound_smiles=CN(C)CCCn1c(-c2nonc2N)nc2cnccc21 readout=inhibition measurement=4.25
compound_smiles=CCn1c(-c2nonc2N)nc2c(C#CC(C)(C)O)nc(OCCNC)cc21 readout=inhibition measurement=8.19
compound_smiles=CCS(=O)(=O)c1ccc(OC)c(Nc2ncc(-c3cccc(OC)c3)o2)c1 readout=inhibition measurement=3.87
compound_smiles=CCn1c(-c2nonc2N)nc2ccc(F)cc21 readout=inhibition measurement=5.71
compound_smiles=O=C(Nc1ccc(Oc2ccc3[nH]c(NC(=O)c4ccco4)nc3c2)cc1)Nc1cc(C(F)(F)F)ccc1F readout=inhibition measurement=2.22
compound_smiles=NS(=O)(=O)c1ccc(-c2cc3ccncc3cc2OCc2ccccc2)cc1 readout=inhibition measurement=4.49
compound_smiles=O=C1Nc2ccccc2/C1=C/Nc1ccc2[nH]c(=O)[nH]c2c1 readout=inhibition measurement=4.72
compound_smiles=Cc1ccc(Nc2ccnc(Nc3cccc(C(N)=O)c3)n2)cc1O readout=inhibition measurement=16.4
compound_smiles=C[C@@H](Oc1cc(-n2cnc3ccc(OC[C@@H](O)CO)cc32)sc1C(N)=O)c1ccccc1Cl readout=inhibition measurement=-0.26
compound_smiles=Oc1cccc(-c2nc(-c3ccccc3)[nH]c2-c2ccncc2)c1 readout=inhibition measurement=5.82
compound_smiles=COC(=O)c1ccc2c(c1)C(=Cc1cc(Br)c(O)c(Br)c1)C(=O)N2 readout=inhibition measurement=0.79
compound_smiles=NS(=O)(=O)c1ccc(NC=C2C(=O)Nc3ccc4ncsc4c32)cc1 readout=inhibition measurement=9.7
compound_smiles=Nc1ccc(C#Cc2cncnc2Nc2ccc(OCc3cccc(F)c3)c(Cl)c2)cc1 readout=inhibition measurement=1.26
compound_smiles=CC(C)c1ccc(Nc2nccc(-c3cnn4ncccc34)n2)cc1 readout=inhibition measurement=5.49
compound_smiles=Cc1cc(Cl)cc2c1NC(=O)C2=NNc1ccc(S(N)(=O)=O)cc1 readout=inhibition measurement=1.99
compound_smiles=Nc1nccc(C#Cc2cncnc2Nc2ccc(OCc3cccc(F)c3)c(Cl)c2)n1 readout=inhibition measurement=4.21
compound_smiles=Cc1nc(-c2ccccc2)n2nc(NCCCN3CCOCC3)ncc12 readout=inhibition measurement=4.35
compound_smiles=Cc1ccc2c(-c3ccnc(Nc4ccc5c(c4)OCCO5)n3)c(-c3ccc(C(F)(F)F)cc3)nn2n1 readout=inhibition measurement=3.76

* * *

Each record here notes measured inhibition.
Molecular target: SRSF protein kinase 1 (Homo sapiens) (UniProt Q96SB4);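 also: values are mean percent inhibition of SRPK1 kinase, measured in the GSK PKIS screening panel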
Sequence (Q96SB4 whole entry): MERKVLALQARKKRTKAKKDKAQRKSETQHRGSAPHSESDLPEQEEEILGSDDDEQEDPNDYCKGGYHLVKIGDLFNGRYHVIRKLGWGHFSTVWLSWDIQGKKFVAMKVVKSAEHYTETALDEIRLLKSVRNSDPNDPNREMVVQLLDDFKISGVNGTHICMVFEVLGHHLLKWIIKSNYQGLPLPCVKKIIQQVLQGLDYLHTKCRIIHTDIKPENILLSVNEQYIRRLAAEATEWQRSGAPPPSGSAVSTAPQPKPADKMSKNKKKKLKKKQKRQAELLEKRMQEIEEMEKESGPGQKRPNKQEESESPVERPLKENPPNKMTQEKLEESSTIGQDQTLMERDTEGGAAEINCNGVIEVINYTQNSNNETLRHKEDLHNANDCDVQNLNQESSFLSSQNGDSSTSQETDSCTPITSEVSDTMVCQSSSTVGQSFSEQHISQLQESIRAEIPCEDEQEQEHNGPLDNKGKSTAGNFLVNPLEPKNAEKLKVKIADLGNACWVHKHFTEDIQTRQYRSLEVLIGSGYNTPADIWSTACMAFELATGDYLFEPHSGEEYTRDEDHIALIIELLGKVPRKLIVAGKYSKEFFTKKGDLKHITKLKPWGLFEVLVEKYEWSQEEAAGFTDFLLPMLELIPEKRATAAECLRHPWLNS
Details: at 0.1 µM
readout: inhibition

compound_smiles=CN(C)c1cc2c(Nc3ccc4c(cnn4Cc4ccccc4)c3)ncnc2cn1 readout=inhibition measurement=-2.31%
compound_smiles=NC(=O)c1cccc(Nc2nccc(Nc3cccc(F)c3)n2)c1 readout=inhibition measurement=-2.36%
compound_smiles=COc1cc(/C=N/Nc2ncnc3c2cnn3C(C)C)ccc1O readout=inhibition measurement=-0.73%
compound_smiles=Cc1ccc2c(-c3ccnc(Nc4cccc(C(F)(F)F)c4)n3)c(-c3ccccc3)nn2n1 readout=inhibition measurement=-3.32%
compound_smiles=N#Cc1c(NC(=O)c2ccccc2F)sc2c1CCCC2 readout=inhibition measurement=-1.54%
compound_smiles=[O-][S+]1CCN(Cc2ccc(-c3ccc4ncnc(Nc5ccc(OCc6ccccc6)c(Cl)c5)c4c3)o2)CC1 readout=inhibition measurement=-1.34%
compound_smiles=CS(=O)(=O)Nc1cccc(-c2ccc3c(NC(=O)C4CC4)n[nH]c3c2)c1 readout=inhibition measurement=-2.53%
compound_smiles=COC(=O)Nc1nc2cc(Oc3ccc(NC(=O)Nc4cccc(Br)c4)cc3)ccc2[nH]1 readout=inhibition measurement=-2.5%
compound_smiles=CC(C)c1ccc(Nc2nccc(-c3cnn4ncccc34)n2)cc1 readout=inhibition measurement=-1.68%
compound_smiles=N#Cc1cccc(Nc2nccc(-c3cnn4ncccc34)n2)c1 readout=inhibition measurement=0.8%
